system: 422866-222-R5-J1-PDC spheroids with HUVEC/MSC, viability; test: Anticancer human tumor 422866-222-R5-J1-PDC patient-derived pancreatic adenocarcinoma cell line growth inhibition [GQUAD]; details: curve of first compound; second compound 0.316 µM;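 further: spheroids exposed to compounds for seven days before reading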
# reported IC50; entries follow

>  <molecule>
COc1ncnc(C2CC2)c1-c1ncc2cnn(Cc3ccc(-c4nc(C(F)(F)F)cn4C(C)C)cc3)c2n1 + Cc1cnc(CNC(=O)c2c(=O)c3ccc(N4CCCN(C)CC4)nc3n3c2sc2ccccc23)cn1

>  <IC50>
> 10000 nM

$$$$
>  <molecule>
CC(=O)O[C@H]1C(=O)[C@@]2(C)[C@H]([C@H](OC(=O)c3ccccc3)[C@]3(O)C[C@H](OC(=O)[C@H](O)[C@@H](NC(=O)c4ccccc4)c4ccccc4)C(C)=C1C3(C)C)[C@]1(OC(C)=O)CO[C@@H]1C[C@@H]2O + Cc1[nH]c2ccc(F)cc2c1-c1nc2c3cccnc3c3ncccc3c2[nH]1

>  <IC50>
2040 nM

$$$$
>  <molecule>
COc1cc(C2c3cc4c(cc3C(OC3OC5COC(C)OC5C(O)C3O)C3COC(=O)C23)OCO4)cc(OC)c1O (stereo not given) + Cc1cnc(CNC(=O)c2c(=O)c3ccc(N4CCCN(C)CC4)nc3n3c2sc2ccccc23)cn1

>  <IC50>
> 10000 nM

$$$$
>  <molecule>
Cn1ncnc1[C@H]1c2n[nH]c(=O)c3cc(F)cc(c23)N[C@@H]1c1ccc(F)cc1 + Cc1cnc(CNC(=O)c2c(=O)c3ccc(N4CCCN(C)CC4)nc3n3c2sc2ccccc23)cn1

>  <IC50>
> 316 nM

$$$$
>  <molecule>
O=C(NO)c1cnc(N2CCN(S(=O)(=O)c3ccc4ccccc4c3)CC2)nc1 + Cc1cnc(CNC(=O)c2c(=O)c3ccc(N4CCCN(C)CC4)nc3n3c2sc2ccccc23)cn1

>  <IC50>
1650 nM

$$$$
>  <molecule>
Cc1[nH]c2ccccc2c1CCNCc1ccc(/C=C/C(=O)NO)cc1 + Cc1cnc(CNC(=O)c2c(=O)c3ccc(N4CCCN(C)CC4)nc3n3c2sc2ccccc23)cn1

>  <IC50>
> 316 nM

$$$$
>  <molecule>
Cc1cccc(N(C)C(=O)C2C(O)CCN2c2nc(C)cc(C(F)(F)F)c2C#N)c1 (stereo not given) + CN(C)c1ccc(Nc2c3ccc(NC(=O)CCN4CCCC4)cc3nc3cc(NC(=O)CCN4CCCC4)ccc23)cc1

>  <IC50>
> 10000 nM

$$$$
>  <molecule>
COc1cccc2c1C(=O)c1c(O)c3c(c(O)c1C2=O)CC(O)(C(=O)CO)CC3OC1CC(N)C(O)C(C)O1 (stereo not given) + Cc1[nH]c2ccc(F)cc2c1-c1nc2c3cccnc3c3ncccc3c2[nH]1

>  <IC50>
639 nM

$$$$

# molecule C#Cc1c(F)ccc2cc(O)cc(-c3ncc4c(N5CC6CCC(C5)N6)nc(OCC56CCCN5CC(F)C6)nc4c3F)c12 (stereo not given) + Cc1[nH]c2ccc(F)cc2c1-c1nc2c3cccnc3c3ncccc3c2[nH]1 ; its IC50 = 1930 nM

Short answer for CCc1c2c(nc3ccc(O)cc13)-c1cc3c(c(=O)n1C2)COC(=O)[C@]3(O)CC + CN(C)c1ccc(Nc2c3ccc(NC(=O)CCN4CCCC4)cc3nc3cc(NC(=O)CCN4CCCC4)ccc23)cc1 : IC50 was 2.86 nM

These measurements were taken from PubChem BioAssay AID2060511.
